Entries below carry reported MIC on P. acnes ATCC 11827.

compound	reported.property	result
C[C@H]1c2cccc(O)c2C(=O)C2=C(O)[C@]3(O)C(=O)C(C(N)=O)=C(O)[C@@H](N(C)C)[C@@H]3[C@@H](O)[C@@H]21 [Doxycycline, reference compound]	MIC	< 4 µg/mL

Quick request: MIC for each listed item, please.
1. CN(C)c1ccc(O)c2c1C[C@H]1C[C@H]3[C@H](N(C)C)C(O)=C(C(N)=O)C(=O)[C@@]3(O)C(O)=C1C2=O [Minocycline, reference compound]
2. CCO/N=C(\C)c1cc(N)c(O)c2c1C[C@H]1C[C@H]3[C@H](N(C)C)C(O)=C(C(N)=O)C(=O)[C@@]3(O)C(O)=C1C2=O
3. CCNN(CC)Cc1ccc(O)c2c1C[C@H]1C[C@H]3[C@H](N(C)C)C(O)=C(C(N)=O)C(=O)[C@@]3(O)C(O)=C1C2=O
4. CN(C)[C@@H]1C(O)=C(C(N)=O)C(=O)[C@@]2(O)C(O)=C3C(=O)c4c(O)ccc(-c5cnoc5)c4C[C@H]3C[C@@H]12

< 4 µg/mL
< 4 µg/mL
< 4 µg/mL
< 4 µg/mL
